These measurements were taken from ChEMBL document CHEMBL1201862.

# Tested on: Hs-578T
# Protocol Details: NCI tumour cell line growth inhibition, 48 h
Active and inactive are the calls of the source. Cut-off read from the data, not from the text of the source: active = GI50 up to about 1.1 µM and inactive = higher.
Quick reference for GI50 among some compounds
Measured Quantity: GI50

[[record]]
compound = "COc1ccc(S(=O)(=O)n2c3c(c4ccccc42)[C@@H]2[C@@H](CCCN2C(=O)C[S+]([O-])c2ccc(C)cc2)[C@H](Cl)C3)cc1 (stereo partly specified)"
meas_value = "> 100 µM (inactive)"

[[record]]
compound = "CC(=O)CC(O)(C(F)(F)Cl)C(F)(Cl)Cl (stereo unspecified)"
meas_value = "> 10 µM (inactive)"

[[record]]
compound = "CC(=O)Nc1ccc2nc(N)n[n+]([O-])c2c1"
meas_value = "92.3 µM (inactive)"

[[record]]
compound = "CN(C)S(=O)(=O)Nc1nnc(S(N)(=O)=O)s1"
meas_value = "> 100 µM (inactive)"

[[record]]
compound = "CCC/C=C/C=C/C1CC(O)C(O)C(=O)C1CO (stereo unspecified)"
meas_value = "> 100 µM (inactive)"

[[record]]
compound = "CN(C)CCN1C(=O)c2cccc3cc(N)cc(c23)C1=O [AMONAFIDE]"
meas_value = "6.21 µM (inactive)"

[[record]]
compound = "Cc1ncc([N+](=O)[O-])n1CCNC(=O)Cn1ccnc1[N+](=O)[O-]"
meas_value = "> 100 µM (inactive)"

[[record]]
compound = "CN1C(NN)=NS(=O)(=O)c2ccccc21"
meas_value = "> 100 µM (inactive)"

[[record]]
compound = "Cc1cc(=O)oc2cc(O)c(CN(C)CC(=O)O)cc12"
meas_value = "> 100 µM (inactive)"

[[record]]
compound = "COc1ccc(CNc2ccn(C3OC(CO)C(O)C3O)c(=O)n2)cc1 (stereo unspecified)"
meas_value = "> 100 µM (inactive)"

[[record]]
compound = "NC1=NNC2(C(N)=N1)c1ccccc1-c1ccccc12"
meas_value = "> 10 µM (inactive)"

